# protocol.text: Ratio of AUC in brain to plasma in Tg2576 mouse
# Type: ADME
# conditions.used: brain and plasma, read-out: Ratio AUC
Below: a set of entries, each annotated with reported Kp.
parameter: Kp

# input.smiles, measured.number
records = [
    ("NC1=NC(c2ccccc2)(c2ccccc2)C2=NCCCN12", 1),
    ("CN1C(=O)C(c2ccccc2)(c2ccccc2)N=C1N", 0.8),
    ("CN1C(=O)[C@@](c2ccc(OC(F)(F)F)cc2)(c2ccc(F)c(-c3cncnc3)c2)N=C1N", 0.1),
    ("COc1ccc([C@]2(c3ccc(F)c(-c4cccnc4F)c3)N=C(N)N(C)C2=O)cc1C", 0.1),
]

* * *

# System: Brain
# protocol.text: Permeability across brain in Tg2576 mouse at 100 mg/kg, po
# Type: ADME, organism-based
# Parameters: dose 100 mg/kg, route oral
# conditions.used: in vivo

# input.smiles, unit.string, permeability
rows = [
    ("COc1ccc([C@]2(c3cccc(-c4cccnc4)c3)N=C(N)N(C)C2=O)cc1C", "%", 15),
    ("COc1ccc([C@]2(c3cccc(-c4cccnc4F)c3)N=C(N)N(C)C2=O)cc1C", "%", 10),
    ("CN1C(=O)[C@@](c2ccc(OC(F)F)cc2)(c2cccc(-c3cccnc3F)c2)N=C1N", "%", 9),
    ("CN1C(=O)[C@](c2ccccc2)(c2ccc(OC(F)F)cc2)N=C1N", "%", 90),
    ("CN1C(=O)[C@@](c2ccc(OC(F)(F)F)cc2)(c2cccc(-c3cccnc3F)c2)N=C1N", "%", 10),
    ("CN1C(=O)C(c2ccccc2)(c2ccccc2)N=C1N", "%", 81),
    ("COc1ccc([C@]2(c3cccc(-c4cncnc4)c3)N=C(N)N(C)C2=O)cc1C", "%", 5),
    ("COc1ccc([C@]2(c3cccc(-c4cccnc4OC)c3)N=C(N)N(C)C2=O)cc1C", "%", 7),
    ("CN1C(=O)[C@@](c2ccc(OC(F)F)cc2)(c2cccc(-c3cc(F)cnc3F)c2)N=C1N", "%", 9),
    ("CN1C(=O)[C@@](c2ccc(OC(F)(F)F)cc2)(c2cccc(-c3cccnc3)c2)N=C1N", "%", 10),
]
